B1: library; a variant is named by its letters at N, in order (parent)
chain: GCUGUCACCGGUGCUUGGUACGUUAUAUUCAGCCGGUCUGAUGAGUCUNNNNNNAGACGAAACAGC

- Variants of: B1
- testName: normalized RNA/DNA level without ligand (relative to sTRSVctl = 100) (log10 (% of sTRSVctl)); HEK293T overexpressing SLC46A1; higher = less ribozyme self-cleavage, higher mRNA level
- conditionSet: without (6R,S)-folinic acid; ligand present: no
metricName: normalized RNA/DNA level without ligand (log10)
Just the number, please, no unit after it.

GCUGUCACCGGUGCUUGGUACGUUAUAUUCAGCCGGUCUGAUGAGUCUAUAAACAGACGAAACAGC : 2
GCUGUCACCGGUGCUUGGUACGUUAUAUUCAGCCGGUCUGAUGAGUCUGGUCUCAGACGAAACAGC : 2.05
GCUGUCACCGGUGCUUGGUACGUUAUAUUCAGCCGGUCUGAUGAGUCUUGGUUCAGACGAAACAGC : 2.01
GCUGUCACCGGUGCUUGGUACGUUAUAUUCAGCCGGUCUGAUGAGUCUCAAGGAAGACGAAACAGC : 1.98
GCUGUCACCGGUGCUUGGUACGUUAUAUUCAGCCGGUCUGAUGAGUCUAACGUGAGACGAAACAGC : 1.87

Returns the measured normalized RNA/DNA level without ligand (log10) for the input variant. Input: `GCUGUCACCGGUGCUUGGUACGUUAUAUUCAGCCGGUCUGAUGAGUCUCAGCGGAGACGAAACAGC`
1.98

Recorded normalized RNA/DNA level without ligand (log10) for `GCUGUCACCGGUGCUUGGUACGUUAUAUUCAGCCGGUCUGAUGAGUCUUGACGUAGACGAAACAGC` , please?
1.97

What does the data say about its normalized RNA/DNA level without ligand (log10)? Entry: `GCUGUCACCGGUGCUUGGUACGUUAUAUUCAGCCGGUCUGAUGAGUCUGGGCGCAGACGAAACAGC`
2.01

// data source = the supplement of paper PMC6757056
